Let's go through some recorded IC50 values for SIRT5 (Homo sapiens (Human), UniProt Q9NXA8) together.
Measured Attribute: IC50 (µM)

Please review the entries below; each comes with its answer.
1. CC(=O)Nc1ccc(-c2csc(NC(=S)Nc3ccc(C(=O)O)c(O)c3)n2)cc1 [Compound 1-5] :: 12.4
2. O=C(O)c1ccc(NC(=S)Nc2nc(-c3ccccc3F)cs2)cc1O [Compound 1-15] :: 26.2
3. O=C(O)c1ccc(NC(=S)Nc2nc(-c3ccc([N+](=O)[O-])c(F)c3)cs2)cc1O [Compound 1-35] :: 14.9
4. CC(=O)Nc1cccc(-c2csc(NC(=S)Nc3ccc(C(=O)O)c(O)c3)n2)c1 [Compound 1-24] :: 35.6
5. COc1ccc(-c2csc(NC(=S)Nc3ccc(C(=O)O)c(O)c3)n2)cc1 [Compound 1-18] :: 29.2

[I] CC(=O)Nc1ccc(-c2csc(NC(=S)Nc3ccc(C(=O)O)cc3O)n2)cc1 [Compound 1-9]
[II] O=C(O)c1ccc(NC(=S)Nc2nc(-c3ccc(F)c(S(=O)(=O)NC4CCCC4)c3)cs2)cc1O [Compound 1-37]
[III] O=C(O)c1ccc(NC(=S)Nc2nc(-c3ccc(F)cc3)cs2)cc1O [Compound 1-13]
[IV] N#Cc1ccc(-c2csc(NC(=S)Nc3ccc(C(=O)O)c(O)c3)n2)cc1 [Compound 1-22]
Request: Ascending by IC50, please: list the compounds accordingly. Answer by listing the labels in the order asked for.
Response: IV, III, II, I
(IV: 11.4 µM, III: 17.3 µM, II: 24.9 µM, I: 50.7 µM)

* * *

Consider compounds characterized by their IC50 with SIRT5 (Homo sapiens (Human)).
Sequence (Q9NXA8 37-310): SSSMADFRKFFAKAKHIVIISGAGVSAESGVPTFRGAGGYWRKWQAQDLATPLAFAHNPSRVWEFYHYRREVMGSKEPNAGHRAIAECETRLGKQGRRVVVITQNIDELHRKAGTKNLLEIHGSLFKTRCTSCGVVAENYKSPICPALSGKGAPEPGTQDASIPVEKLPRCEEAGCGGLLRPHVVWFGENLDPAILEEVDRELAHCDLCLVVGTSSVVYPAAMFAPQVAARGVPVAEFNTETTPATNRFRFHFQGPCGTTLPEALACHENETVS
Measured Attribute: IC50 (µM)

1. O=C(O)c1ccc(NC(=S)Nc2nc(-c3ccc(F)cc3F)cs2)cc1O [Compound 1-31] :: 19.3
2. Cc1ccccc1-c1csc(NC(=S)Nc2ccc(C(=O)O)c(O)c2)n1 [Compound 1-12] :: 34

[1] CNS(=O)(=O)c1cccc(-c2csc(NC(=S)Nc3ccc(C(=O)O)c(O)c3)n2)c1 [Compound 1-29]
[2] O=C(O)c1ccc(NC(=S)Nc2nc(-c3ccc(F)c([N+](=O)[O-])c3)cs2)cc1O [Compound 1-36]
Request: # min-compare on IC50 between 1 and 2 Indicate your choice by writing its label.
Response: 2
